Let's look at some compounds and their measured Emax.
- tested-system: Estrogen receptor alpha (ERα) (Homo sapiens, UniProt P03372)
- Construct: expressed in transfected cells; host or cells: NIH3T3
- Sequence (P03372 whole entry): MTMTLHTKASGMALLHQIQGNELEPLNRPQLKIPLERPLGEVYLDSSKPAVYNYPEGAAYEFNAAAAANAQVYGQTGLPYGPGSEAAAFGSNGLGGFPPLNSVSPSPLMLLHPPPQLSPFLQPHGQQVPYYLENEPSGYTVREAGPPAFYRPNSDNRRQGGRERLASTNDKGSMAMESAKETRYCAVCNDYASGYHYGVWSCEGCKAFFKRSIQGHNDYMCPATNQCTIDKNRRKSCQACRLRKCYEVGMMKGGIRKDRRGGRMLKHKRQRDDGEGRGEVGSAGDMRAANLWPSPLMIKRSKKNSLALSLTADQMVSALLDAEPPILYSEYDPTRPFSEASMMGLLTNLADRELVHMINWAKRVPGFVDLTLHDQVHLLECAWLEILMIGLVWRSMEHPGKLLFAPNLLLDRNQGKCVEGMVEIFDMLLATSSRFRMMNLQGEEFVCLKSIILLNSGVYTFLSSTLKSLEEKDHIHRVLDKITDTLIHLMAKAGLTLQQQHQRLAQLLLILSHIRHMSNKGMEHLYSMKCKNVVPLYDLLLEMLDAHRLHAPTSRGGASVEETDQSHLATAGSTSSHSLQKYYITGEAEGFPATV
- experiment-summary: Receptor Selection and Amplification Technology (R-SAT) functional receptor assay, ERα
- Assay type: cell-based
- condition-details: NIH3T3 cells, efficacy relative to the reference ligand Estrone
- Experimental: The functional receptor assay, Receptor Selection and Amplification Technology (R-SAT™), was used with minor modifications from the procedure described in U.S. Pat. No. 5,707,798, which is hereby incorporated by reference in its entirety, to screen compounds for efficacy at the Estrogen receptors alpha and beta (ERα, ERβ). […] The resulting colorimetric reaction was measured in a spectrophotometric plate reader (Titertek Inc.) at […]. All data were analyzed using the computer program XLFit (IDBSm). […]
metric: Emax (%)

INSERT INTO assay_data (compound, units_of_measure, endpoint_result) VALUES
  ('CC(C)C1CCC(c2ccc(O)cc2)(c2cccc(F)c2)CC1 (stereo not shown) [ERB-037]', '%', 114),
  ('Oc1ccc(C2(c3ccccc3)CCCCC2)cc1 [ERB-002, 4-(1-Phenylcyclohexyl)phenol]', '%', 50),
  ('Oc1ccc(C2(c3ccccc3)CCC(C(F)(F)F)CC2)cc1 (stereo not shown) [ERB-030]', '%', 95),
  ('Oc1ccc(C2(c3ccc(F)cc3F)CCCCC2)cc1 [ERB-011]', '%', 20),
  ('Oc1ccc(C2(c3ccc(F)cc3)CCCCCC2)cc1O [ERB-014]', '%', 120),
  ('Oc1ccc(C2(c3ccccc3)CCCCCCC2)cc1 [ERB-017, 4-(1-Phenyl-cyclooctyl)-phenol]', '%', 80),
  ('Oc1ccc(C2(c3ccccc3)CCCCCC2)cc1 [ERB-012, 4-(1-Phenyl-cycloheptyl)-phenol]', '%', 69);
